target: human CD33 variant P48Q (human, UniProt P20138 18-364); assay: flow cytometry, IgG on cells expressing the mutant
Sequence (P20138 18-364 P48Q limits assumed): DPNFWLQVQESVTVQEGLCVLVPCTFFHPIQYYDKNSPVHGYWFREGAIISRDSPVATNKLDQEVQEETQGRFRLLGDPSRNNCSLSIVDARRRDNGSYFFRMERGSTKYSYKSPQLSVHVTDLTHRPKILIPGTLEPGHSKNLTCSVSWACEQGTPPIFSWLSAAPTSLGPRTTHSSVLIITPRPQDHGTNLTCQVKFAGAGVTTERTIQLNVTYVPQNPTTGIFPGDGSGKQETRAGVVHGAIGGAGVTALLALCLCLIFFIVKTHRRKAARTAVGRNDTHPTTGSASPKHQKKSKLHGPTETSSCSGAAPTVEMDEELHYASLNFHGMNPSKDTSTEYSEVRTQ
experimental.readout: Mean % WT Binding

Refmab #2 (antibody, human IgG1, V domains shown, Tested in IgG format; human IgG1 Fc silent (PG-LALA)) VH: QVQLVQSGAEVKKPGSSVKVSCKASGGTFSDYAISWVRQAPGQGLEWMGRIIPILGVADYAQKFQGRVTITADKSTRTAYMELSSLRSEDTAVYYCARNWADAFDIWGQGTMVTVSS VL: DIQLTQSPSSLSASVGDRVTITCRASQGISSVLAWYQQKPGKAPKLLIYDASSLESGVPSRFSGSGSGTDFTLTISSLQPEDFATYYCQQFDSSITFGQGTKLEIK | 106 % of WT
Refmab #1 (antibody, human IgG1, V domains shown, Tested in IgG format; human IgG1 (Absolute Antibody hP67.6, Cat. No. Ab00283-10.0); also called hP67.6) VH: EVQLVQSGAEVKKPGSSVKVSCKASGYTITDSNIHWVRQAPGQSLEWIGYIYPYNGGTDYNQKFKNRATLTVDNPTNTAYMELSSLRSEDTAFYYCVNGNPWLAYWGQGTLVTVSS VL: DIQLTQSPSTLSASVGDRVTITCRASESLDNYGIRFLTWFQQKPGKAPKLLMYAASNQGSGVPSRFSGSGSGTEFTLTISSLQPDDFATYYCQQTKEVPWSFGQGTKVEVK | 120 % of WT
Refmab #3 (antibody, human IgG1, V domains shown, Tested in IgG format; human IgG1 Fc silent (PG-LALA)) VH: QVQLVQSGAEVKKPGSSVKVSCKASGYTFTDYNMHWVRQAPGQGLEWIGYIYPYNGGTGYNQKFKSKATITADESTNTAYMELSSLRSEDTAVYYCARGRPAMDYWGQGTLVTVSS VL: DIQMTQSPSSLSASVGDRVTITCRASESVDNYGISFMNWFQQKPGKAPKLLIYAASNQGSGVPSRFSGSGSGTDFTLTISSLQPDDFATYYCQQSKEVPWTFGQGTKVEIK | 101 % of WT

Now turn to the next binder.
// query Fill in: Mean % WT Binding of Refmab #4 (antibody, human IgG1, V domains shown, Tested in IgG format; human IgG1 Fc silent (PG-LALA)) VH: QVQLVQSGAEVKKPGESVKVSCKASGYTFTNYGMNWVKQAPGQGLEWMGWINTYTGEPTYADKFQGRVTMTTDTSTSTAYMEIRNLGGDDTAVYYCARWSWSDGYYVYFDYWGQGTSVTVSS VL: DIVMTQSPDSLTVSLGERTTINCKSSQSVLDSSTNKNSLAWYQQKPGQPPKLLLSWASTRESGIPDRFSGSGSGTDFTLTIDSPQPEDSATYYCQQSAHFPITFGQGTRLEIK is ___
// result 2.1 % of WT
